Measurement Target: Mouse ERK2 protein (Mus musculus (Mouse), UniProt P63085)
Sequence (P63085 whole entry): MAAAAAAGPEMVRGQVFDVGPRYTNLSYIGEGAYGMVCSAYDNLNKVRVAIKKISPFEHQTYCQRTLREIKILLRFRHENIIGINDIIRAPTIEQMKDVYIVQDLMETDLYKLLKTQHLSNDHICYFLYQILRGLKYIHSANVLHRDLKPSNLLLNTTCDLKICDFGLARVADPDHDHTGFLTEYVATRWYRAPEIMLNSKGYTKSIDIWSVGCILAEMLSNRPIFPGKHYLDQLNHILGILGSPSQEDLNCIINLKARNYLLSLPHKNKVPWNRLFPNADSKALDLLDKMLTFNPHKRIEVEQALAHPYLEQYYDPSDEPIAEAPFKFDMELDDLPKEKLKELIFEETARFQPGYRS
Test: Coupled MEK1/ERK2 IMAP assay or Active ERK2 IMAP assay
Format: biochemical
Measurement Conditions: Table 1, class symbols, 30 μM ATP
pIC50: −log10 of the molar value.
Measured Endpoint: pIC50

Guide cases for pIC50, answers given:
Compound	pIC50
Cc1cc(-c2n[nH]c3c2CN(C(=O)N[C@H]2CC[C@H]4CC[C@@H]2N4Cc2c(F)cccc2F)CC3)ccn1	6.00 to 7.00
Cc1nc2cc(-c3n[nH]c4c3CN(C(=O)N[C@@H]3CCCN(Cc5ccccc5)C3)CC4)ccc2s1	6.00 to 7.00
O=C(N[C@H]1CNC[C@@H]1c1ccccc1)[C@@H]1CCc2[nH]nc(-c3ccncc3)c2C1 (racemic)	6.00 to 7.00
O=C(Cc1ccccc1Cl)N1CCc2[nH]nc(-c3ccncc3)c2C1	6.00 to 7.00
Cc1nc2ccc(-c3n[nH]c4c3CN(C(=O)N[C@@H]3CCCN(Cc5c(F)cccc5F)C3)CC4)cc2s1	> 7.70

Please look at the items below and tell me pIC50 for each one, in order.
1. COC(=O)c1ccccc1CN1CCC[C@@H](NC(=O)N2CCc3[nH]nc(-c4ccncc4)c3C2)C1
2. O=C(N[C@@H]1CCCN(Cc2nccs2)C1)N1CCc2[nH]nc(-c3ccncc3)c2C1

Reply |
7.00 to 7.68
7.00 to 7.68

====

Measurement Target: Mouse ERK2 protein (Mus musculus (Mouse))
Test: Coupled MEK1/ERK2 IMAP assay or Active ERK2 IMAP assay
Type: biochemical
Measurement Conditions: Table 1, class symbols, 30 μM ATP
pIC50: −log10 of the molar value.
Measured Endpoint: pIC50

Guide cases for pIC50, answers given:
Compound	pIC50
O=C(N[C@@H]1CNC[C@H]1c1cccc(-c2ccccc2)c1)N1CCc2[nH]nc(-c3ccncc3)c2C1 (racemic) [Compound 167]	> 7.70
Cc1nc2cc(-c3n[nH]c4c3CN(C(=O)N[C@@H]3CCCN(Cc5ccnc6ccccc56)C3)CC4)ccc2o1 [Compound 144]	6.00 to 7.00
COc1ccccc1NC(=O)C1(C)CCc2[nH]nc(-c3ccncc3)c2C1 (stereo not drawn) [Compound 15]	4.00 to 6.00
COc1ccccc1CN1CCC[C@@H](NC(=O)N2CCc3[nH]nc(-c4ccncc4)c3C2)C1 [Compound 70]	7.00 to 7.68
Nc1nc(CC(=O)N2CCc3[nH]nc(-c4ccncc4)c3C2)cs1 [Compound 5]	4.00 to 6.00
O=C(NC1CNCC(c2ccccc2)C1)N1CCc2[nH]nc(-c3ccncc3)c2C1 (stereo not drawn) [Compound 47]	> 7.70
O=C(N[C@@H]1CCCN(Cc2c(F)cccc2F)C1)N1CCc2[nH]nc(-c3ccc(-c4ccccc4)nc3)c2C1 [Compound 137]	6.00 to 7.00
O=C(N[C@@H]1CCCN(Cc2csc3ccccc23)C1)N1CCc2[nH]nc(-c3ccc4c(c3)CCO4)c2C1 [Compound 183]	> 7.70
Cc1cc(-c2n[nH]c3c2CN(C(=O)N[C@@H]2CCN(Cc4csc5ccccc45)C2)CC3)ccn1 [Compound 120]	> 7.70
COc1cccc(F)c1CN1CCC[C@@H](NC(=O)N2CCc3[nH]nc(-c4ccncc4)c3C2)C1 [Compound 53]	> 7.70

Please look at the items below and tell me pIC50 for each one, in order.
1. O=C(N[C@@H]1CCCN(Cc2ccsc2)C1)N1CCc2[nH]nc(-c3ccncc3)c2C1 [Compound 56]
2. Cc1cccc(C)c1CN1CCC[C@@H](NC(=O)N2CCc3[nH]nc(-c4ccc5nn(C)cc5c4)c3C2)C1 [Compound 126]

Reply |
1. > 7.70
2. > 7.70

====

Can you tell me pIC50 for the items I'm about to list?
Measurement Target: Mouse ERK2 protein (Mus musculus (Mouse))
Test: Coupled MEK1/ERK2 IMAP assay or Active ERK2 IMAP assay
Type: biochemical
Measurement Conditions: Table 1, class symbols, 30 μM ATP
pIC50: −log10 of the molar value.

Please look at the items below and tell me pIC50 for each one, in order.
1. COc1cccc(F)c1CN1CC[C@@H](NC(=O)N2CCc3[nH]nc(-c4ccnc(C)c4)c3C2)C1 [Compound 116]
2. O=C(Cc1ccccn1)N1CCc2[nH]nc(-c3ccncc3)c2C1 [Compound 30]
3. COc1ccc(-c2n[nH]c3c2CN(C(=O)N[C@@H]2CCCN(Cc4c(C)cccc4C)C2)CC3)cn1 [Compound 125]
4. Cc1cc(-c2n[nH]c3c2CN(C(=O)NC2CC(CO)CN(Cc4c(F)cccc4F)C2)CC3)ccn1 (centres unmarked) [Compound 86]
5. Cc1cc(-c2n[nH]c3c2CN(C(=O)N[C@@H]2CCN(Cc4ccccc4Cl)C2)CC3)ccn1 [Compound 118]
6. Cc1cc(-c2n[nH]c3c2CN(C(=O)NC2CCCN(Cc4c(F)cccc4Cl)C2)CC3)ccn1 (centres unmarked) [Compound 85]
7. Cc1nc2cc(-c3n[nH]c4c3CN(C(=O)N[C@@H]3CCCN(Cc5cccc6ncccc56)C3)CC4)ccc2o1 [Compound 146]

Reply |
["7.00 to 7.68", "6.00 to 7.00", "7.00 to 7.68", "7.00 to 7.68", "7.00 to 7.68", "> 7.70", "7.00 to 7.68"]

Please look at the items below and tell me pIC50 for each one, in order.
1. Cc1nc2cc(-c3n[nH]c4c3CN(C(=O)N[C@@H]3CCCN(Cc5c(F)cccc5F)C3)CC4)ccc2s1 [Compound 188]
2. COc1cccc(F)c1CN1CC(NC(=O)N2CCc3[nH]nc(-c4ccnc(C)c4)c3C2)CCC1C (centres unmarked) [Compound 121]
3. O=C(N[C@@H]1CCCN(Cc2ccccc2)C1)N1CCc2[nH]nc(-c3ccncc3)c2C1 (single isomer, unassigned) [Compound 175]
4. CN(C)c1ccc(CC(=O)N2CCc3[nH]nc(-c4ccncc4)c3C2)cc1 [Compound 22]
5. CC1(C(=O)Nc2ccccc2OC(F)(F)F)CCc2[nH]nc(-c3ccncc3)c2C1 (centres unmarked) [Compound 17]
6. CC(C)C(Cn1ccnc1)NC(=O)C1(C)CCc2[nH]nc(-c3ccncc3)c2C1 (centres unmarked) [Compound 16]
7. Cc1cc(-c2n[nH]c3c2CN(C(=O)N[C@@H]2CCCN(Cc4ccnc5ccccc45)C2)CC3)ccn1 [Compound 98]
8. Cc1cc(-c2n[nH]c3c2CN(C(=O)N[C@H]2CN(Cc4c(F)cccc4F)CC(F)(F)C2)CC3)ccn1 [Compound 180]

Reply |
1: 6.00 to 7.00; 2: 7.00 to 7.68; 3: > 7.70; 4: 6.00 to 7.00; 5: 4.00 to 6.00; 6: 4.00 to 6.00; 7: 6.00 to 7.00; 8: 7.00 to 7.68

====

Measurement Target: UniProtKB P63085
Test: Coupled MEK1/ERK2 IMAP assay or Active ERK2 IMAP assay
Type: biochemical
Measurement Conditions: Table 1, class symbols, 30 μM ATP
Protocol: 14 μl of kinase buffer (10 mM Tris.HCl pH 7.2, 10 mM MgCl2, 0.01% Tween-20, 1 mM DTT) containing 0.4 ng unphosphorylated Mouse ERK2 protein is added to each well of a black 384-well assay plate. […] DMSO concentration during initial incubation is 6.7%. […] Binding is allowed to equilibrate for 30 minutes before reading the plate on an LJL Analyst Fluorescence Polarization plate reader. Activated ERK2 activity was also determined in the IMAP assay format using the procedure outlined above. […]
pIC50: −log10 of the molar value.
Measured Endpoint: pIC50

Guide cases for pIC50, answers given:
Molecule	Measurement Target	pIC50
CC1(C(=O)Nc2ccccc2OCCN2CCCCC2)CCc2[nH]nc(-c3ccncc3)c2C1 (stereo not shown)	UniProtKB P63085	4.00 to 6.00
CCn1cc(-c2n[nH]c3c2CN(C(=O)N[C@@H]2CN(C)C[C@H]2c2ccccc2C(F)(F)F)CC3)cn1 (racemic)	UniProtKB P63085	> 7.70
Cc1nc2ccc(-c3n[nH]c4c3CN(C(=O)N[C@@H]3CCCN(Cc5ccccc5)C3)CC4)cc2o1	UniProtKB P63085	7.00 to 7.68
O=C(N[C@@H]1CCCN(Cc2csc3ccccc23)C1)N1CCc2[nH]nc(-c3ccc(-c4ccccc4)nc3)c2C1	UniProtKB P63085	6.00 to 7.00
O=C(NC1CC2CC1N(Cc1c(F)cccc1F)C2)N1CCc2[nH]nc(-c3ccncc3)c2C1 (stereo not shown)	UniProtKB P63085	6.00 to 7.00
Cn1ccc(CN2CCC[C@@H](NC(=O)N3CCc4[nH]nc(-c5ccncc5)c4C3)C2)n1	UniProtKB P63085	6.00 to 7.00

Here is the next item to consider.
Ask | I'd like to know its pIC50. The molecule in question is Cc1cc(-c2n[nH]c3c2CN(C(=O)NC2CC(C)CN(Cc4c(F)cccc4C(F)(F)F)C2)CC3)ccn1 (stereo not shown)
Reply | 6.00 to 7.00
